- EXPERIMENT_DESCRIPTION: Intrinsic clearance in human liver microsomes
- Type: ADME, Microsome
- TEST_CONDITIONS: read-out: CLH
ASSAY_READOUT: CLint scaled (mL/min/kg)
Your answer is read as mL/min/kg, so omit the unit and give the number.

(Q) What value of measured CLint scaled is listed for CC(=O)NC[C@H]1CN(c2ccc(N3CCC(Nc4ccc(Br)cc4)CC3)c(F)c2)C(=O)O1 ?
(A) 3.46

###

// remaining at 0.75 h lookup, one value per entry
- EXPERIMENT_DESCRIPTION: Metabolic stability in human liver microsomes assessed as parent compound remaining after 45 mins in presence of NADPH relative to control
- Assay type: ADME, Microsome
- TEST_CONDITIONS: read-out: Stability
Give the number; % is assumed, so skip it.

[
  {
    "CHEMICAL_STRUCTURE": "CC(=O)NC[C@H]1CN(c2ccc(N3CCOCC3)c(F)c2)C(=O)O1",
    "remaining at 0.75 h [%]": 18
  }
]

Proceeding to the next molecule to report its remaining at 0.75 h.
(Q) For the molecule CC(=O)NC[C@H]1CN(c2ccc(N3CCC(Nc4ccc(Br)cc4)CC3)c(F)c2)C(=O)O1 , what remaining at 0.75 h is on record?
(A) 97

###

Form field: inhibition at 30 µM (one value per entry).
- TARGET_OF_ASSAY: MAO-A (amine oxidase [flavin-containing] A) (Homo sapiens, UniProt P21397)
- Sequence (P21397 whole entry): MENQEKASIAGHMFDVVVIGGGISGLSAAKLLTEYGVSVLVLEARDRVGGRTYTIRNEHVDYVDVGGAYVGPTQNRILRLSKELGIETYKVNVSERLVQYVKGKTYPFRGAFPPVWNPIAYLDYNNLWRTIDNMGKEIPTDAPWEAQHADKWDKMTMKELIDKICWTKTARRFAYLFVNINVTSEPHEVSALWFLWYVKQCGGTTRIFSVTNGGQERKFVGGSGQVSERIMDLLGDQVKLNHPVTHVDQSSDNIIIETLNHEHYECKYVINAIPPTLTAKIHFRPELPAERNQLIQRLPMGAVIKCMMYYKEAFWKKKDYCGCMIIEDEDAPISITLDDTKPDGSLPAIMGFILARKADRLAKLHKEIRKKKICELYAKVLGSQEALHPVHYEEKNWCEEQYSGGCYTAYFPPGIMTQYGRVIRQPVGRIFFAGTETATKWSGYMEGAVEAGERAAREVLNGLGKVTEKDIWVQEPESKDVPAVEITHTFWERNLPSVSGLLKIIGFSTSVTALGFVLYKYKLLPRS
- EXPERIMENT_DESCRIPTION: Inhibition of human MAO-A at 30 uM relative to control
Could you give me the number in %? Just the number is fine.

These recorded examples may help you get a feel for the data.
[
  {
    "CHEMICAL_STRUCTURE": "CC(=O)NC[C@H]1CN(c2ccc(N3CCOCC3)c(F)c2)C(=O)O1",
    "MEASURED_RESULT": 75
  },
  {
    "CHEMICAL_STRUCTURE": "CC(=O)NC[C@H]1CN(c2ccc(N3CCC(Nc4ccccc4)CC3)c(F)c2)C(=O)O1",
    "MEASURED_RESULT": 85
  }
]

Let's switch to this molecule now.
(Q) What measured inhibition at 30 µM goes with CC(=O)NC[C@H]1CN(c2ccc(N3CCC(Nc4ccc(Br)cc4)CC3)c(F)c2)C(=O)O1 ?
(A) 70

###

// reported MIC per item
- System: Staphylococcus aureus
- EXPERIMENT_DESCRIPTION: Antibacterial activity agianst methicillin-resistant Staphylococcus aureus
- Assay type: functional
Give the value in µg/mL but do not write µg/mL after it.

[
  {
    "COMPOUND": "CC(=O)NC[C@H]1CN(c2ccc(N3CCC(Nc4ccc(OC(F)(F)F)cc4)CC3)c(F)c2)C(=O)O1",
    "ASSAY_READOUT": "MIC",
    "MEASURED_RESULT": 1
  },
  {
    "COMPOUND": "CC(=O)NC[C@H]1CN(c2ccc(N3CCC(NCc4ccc(F)cc4)CC3)c(F)c2)C(=O)O1",
    "ASSAY_READOUT": "MIC",
    "MEASURED_RESULT": 1
  }
]

(Q) Requested read-out: MIC. Entry: CC(=O)NC[C@H]1CN(c2ccc(N3CCC(Nc4ccc(F)cc4)CC3)c(F)c2)C(=O)O1
(A) 0.5

(Q) Using the record for CC(=O)NC[C@H]1CN(c2ccc(N3CCC(N(C)c4ccc(Br)cc4)CC3)c(F)c2)C(=O)O1 , report its MIC.
(A) 2

###

- System: Staphylococcus aureus
- EXPERIMENT_DESCRIPTION: Antibacterial activity agianst methicillin-resistant Staphylococcus aureus
- Format: functional
ASSAY_READOUT: MIC

(Q) Provide the documented MIC with Staphylococcus aureus as the system for CC(=O)NC[C@H]1CN(c2ccc(N3CCN(/N=C/c4ccc([N+](=O)[O-])o4)CC3)c(F)c2)C(=O)O1
(A) 1 µg/mL

(Q) Requested read-out MIC, target or system Staphylococcus aureus, entry CC(=O)NC[C@H]1CN(c2ccc(N3CCN(Cc4ccc([N+](=O)[O-])o4)CC3)c(F)c2)C(=O)O1 [RANBEZOLID]
(A) 0.5 µg/mL

(Q) Request - read-out MIC | tested on Staphylococcus aureus | compound CC(=O)NC[C@H]1CN(c2ccc(N3CCC(Nc4ccccc4Br)CC3)c(F)c2)C(=O)O1
(A) 2 µg/mL

(Q) Identify the measured MIC of CC(=O)NC[C@H]1CN(c2ccc(N3CCC(Nc4ccc(Cl)cc4)CC3)c(F)c2)C(=O)O1 for Staphylococcus aureus.
(A) 2 µg/mL

(Q) Query MIC on Staphylococcus aureus for CC(=O)NC[C@H]1CN(c2ccc(N3CCC(Nc4ccc(Br)cc4)CC3)c(F)c2)C(=O)O1
(A) 0.5 µg/mL

(Q) # query: MIC | item CC(=O)NC[C@H]1CN(c2ccc(N3CCC(Nc4ccccc4OC(F)(F)F)CC3)c(F)c2)C(=O)O1 | system: Staphylococcus aureus
(A) 2 µg/mL

###

- Test system: Staphylococcus aureus
- EXPERIMENT_DESCRIPTION: Antibacterial activity agianst methicillin-resistant Staphylococcus aureus
- Format: functional
Reported MIC values for a set of compounds
Report only the number, with the unit µg/mL understood.

[
  {
    "CHEMICAL_STRUCTURE": "CC(=O)NC[C@H]1CN(c2ccc(N3CCC(Nc4ccccc4)CC3)c(F)c2)C(=O)O1",
    "TARGET_OF_ASSAY": "Staphylococcus aureus",
    "ASSAY_READOUT": "MIC",
    "MEASUREMENT_UNITS": "µg/mL",
    "MEASURED_RESULT": 1
  }
]

(Q) Consider the compound shown here: CC(=O)NC[C@H]1CN(c2ccc(N3CCC(Nc4cccc(Br)c4)CC3)c(F)c2)C(=O)O1 What is its recorded MIC?
(A) 2

(Q) Fill in the blank: the reported MIC of CC(=O)NC[C@H]1CN(c2ccc(N3CCC(Nc4cccc(OC(F)(F)F)c4)CC3)c(F)c2)C(=O)O1 is ____.
(A) 2

(Q) Reported MIC for CC(=O)NC[C@H]1CN(c2ccc(N3CCC(Nc4ccc(Br)cc4F)CC3)c(F)c2)C(=O)O1 : what is it?
(A) 2

(Q) Find the recorded MIC belonging to CC(=O)NC[C@H]1CN(c2ccc(N3CCC(Nc4ccc(C(C)C)cc4)CC3)c(F)c2)C(=O)O1 and report it.
(A) 1

(Q) Recorded MIC of CC(=O)NC[C@H]1CN(c2ccc(N3CCOCC3)c(F)c2)C(=O)O1 , please.
(A) 1

(Q) What value of measured MIC is listed for CC(=O)NC[C@H]1CN(c2ccc(N3CCC(NCc4ccccc4)CC3)c(F)c2)C(=O)O1 ?
(A) 1
